Experimental system: T1, corticotropin releasing factor 2 receptor
T1 sequence (Q13324 whole entry, species assumed, looked up): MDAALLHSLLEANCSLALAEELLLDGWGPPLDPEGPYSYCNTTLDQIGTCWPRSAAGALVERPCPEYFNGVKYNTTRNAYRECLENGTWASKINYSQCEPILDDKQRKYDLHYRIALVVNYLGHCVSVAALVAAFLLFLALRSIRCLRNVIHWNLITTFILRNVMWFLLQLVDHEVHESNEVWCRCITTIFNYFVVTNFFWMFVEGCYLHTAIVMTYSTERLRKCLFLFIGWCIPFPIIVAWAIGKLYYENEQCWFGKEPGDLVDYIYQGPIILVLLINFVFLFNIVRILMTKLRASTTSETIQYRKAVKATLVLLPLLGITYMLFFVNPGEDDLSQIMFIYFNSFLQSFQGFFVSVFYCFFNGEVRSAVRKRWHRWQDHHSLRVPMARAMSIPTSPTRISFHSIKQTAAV
Procedure text: cell-based or functional assay
Ends that are not written are not given here.
Quantity measured: CRF2R EC50 (nM)
Please give a number only; it is taken to be in nM.

Binder	Observed value
ZGPPISIDLPQALLRKMIEIEKQEKEKQQAANNRLLLDTI (not fully specified; C-terminal amide) [SEQ ID NO 302]	36.2
ZGPPISIDLPTWLLRKVIEIEKQEKEKQQAANNARLLARI (C-terminal amide) [SEQ ID NO 291]	100
ZGPPISIDVPYYLLRKVIEIEKQEKEKQQAANNARLLARI (C-terminal amide) [SEQ ID NO 378]	14.9
ZGPPISIDLPYHLLRKVIEIEKQEKEKQQAANNALLLATI (C-terminal amide) [SEQ ID NO 313]	11.1
ZGPPISIDLPFALLRKMIEIEKQEKEKQQAANNRLLLDTI (not fully specified; C-terminal amide) [SEQ ID NO 307]	5.82

For DNPSLSIDLPLLLLRTLLELEKTQSQRERAEQNARIFDRV-NH2 [SEQ ID NO 338] , what is its reported CRF2R EC50?
19.3
